Where do these numbers come from? They come from ChEMBL document CHEMBL3044834.

tested on: Digitaria sanguinalis; assay: Herbicidal activity against Digitaria sanguinalis (hairy crabgrass) assessed as inhibition of fresh weed plant weight at 93.75 g/ha using pre-emergence treatment protocol; assay type: functional
measured_attribute: inhibition at 93.75 g/ha (%)
Your answer should be a plain number; it is taken to be in %.

mol | inhibition at 93.75 g/ha [%]
C=CCN1C(=O)COc2cc(F)c(-n3nnc4c(cnn4CC=C)c3=O)cc21 | 20.4

Request: # return recorded inhibition at 93.75 g/ha for input `C=CCN1C(=O)COc2cc(F)c(-n3nnc4nn(CC=C)cc4c3=O)cc21`
Result: 6.1

Request: Please indicate inhibition at 93.75 g/ha recorded for `C#CCN1C(=O)COc2cc(F)c(-n3nnc4c(cnn4CC=C)c3=O)cc21`
Result: 44.9
